- tested_target: yeast choline kinase (Saccharomyces cerevisiae, UniProt P20485)
endpoint_label: IC50

Hi! What's the reported IC50 for C[N+](C)(CF)CCO.[Cl-] on yeast choline kinase (Saccharomyces cerevisiae, UniProt P20485)?
~400 µM

---

// reported tumor uptake per item
- Tested on: mice with PC-3 xenografts
- run_conditions: PC-3 xenograft

molecule	tumor uptake
C[N+](C)(C[18F])CCCO [FHC, [^18F]fluorohomocholine]	~0.07 % dose kg/g
CCC[N+](C)(C[18F])CCO (stereo not shown)	~0.07 % dose kg/g
C[N+](C)(CF)CCO.[Cl-]	~0.07 % dose kg/g

Could you now consider this next molecule?
Field request: tumor uptake | item: CC[N+](C)(C[18F])CCO (stereo not shown) [FEtC, [^18F]fluoromethylethylcholine]
~0.07 % dose kg/g

---

- tested_target: yeast choline kinase (Saccharomyces cerevisiae)
- Sequence (P20485 1-582): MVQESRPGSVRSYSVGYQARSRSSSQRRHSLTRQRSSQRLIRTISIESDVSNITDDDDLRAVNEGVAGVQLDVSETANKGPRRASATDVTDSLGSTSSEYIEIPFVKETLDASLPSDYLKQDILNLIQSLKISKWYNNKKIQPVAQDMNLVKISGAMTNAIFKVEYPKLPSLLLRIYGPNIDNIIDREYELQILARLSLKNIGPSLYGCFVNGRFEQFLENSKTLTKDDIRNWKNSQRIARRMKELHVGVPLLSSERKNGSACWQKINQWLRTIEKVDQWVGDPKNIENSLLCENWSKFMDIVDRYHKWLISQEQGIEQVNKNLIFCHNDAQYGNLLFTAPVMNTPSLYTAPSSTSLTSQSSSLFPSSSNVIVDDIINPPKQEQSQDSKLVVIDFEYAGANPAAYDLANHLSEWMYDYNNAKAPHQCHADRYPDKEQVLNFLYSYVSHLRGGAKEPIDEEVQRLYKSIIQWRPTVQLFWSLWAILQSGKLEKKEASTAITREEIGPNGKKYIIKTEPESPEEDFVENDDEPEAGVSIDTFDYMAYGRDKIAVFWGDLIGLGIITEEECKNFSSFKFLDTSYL
- assay_protocol: In vitro phosphorylation by yeast choline kinase
- Type: biochemical
- run_conditions: 1 μM choline, 25 mU/ml yeast choline kinase, 23° C., 10 min, n = 5
endpoint_label: In vitro phosphorylation (%)
Numeric answer only, unit % assumed.

Completed entries (count: 3):
compound	endpoint_label	value
C[N+](C)(CCO)CCC[18F] [FPC, [^18F]fluoropropylcholine]	In vitro phosphorylation	22.1
C[N+](C)(C)CCO [CH, [methyl-^14C]Choline, reference compound]	In vitro phosphorylation	55.9
C[N+](C)(CF)CCO.[Cl-] [FCH]	In vitro phosphorylation	62.0

Field request: In vitro phosphorylation | item: C[N+](C)(CCO)CC[18F] [HARA-1, reference compound]
43.4

Field request: In vitro phosphorylation | item: CC[N+](C)(C[18F])CCO (centres unmarked) [FEtC, [^18F]fluoromethylethylcholine]
55.2
